- System: Sweetpotato Whitefly-Crawler (WF) (Bemisia tabaci) (BEMITA)
- method_notes: Insecticidal test for Sweetpotato Whitefly-Crawler (WF) in foliar spray assay on cotton plants
- Assay type: in vivo
- assay_conditions: 216 h, 200 ppm foliar spray on cotton plants, graded after 9 days, Abbott corrected % control, read-out: WF 200 ppm, % Control (or Mortality) rating
quantity: mortality at 200 ppm

1) CCN(C(=O)C1CN(C(=O)OC(C)(C)C)C1)c1cn(-c2cccnc2)nc1Cl [Compound F26] ... 0 to 80%
2) CCN(C(=O)CCC(=O)O)c1cn(-c2cccnc2)nc1Cl [Compound C1] ... 0 to 80%

Could you now consider this next molecule?
Fill in the blank: the reported mortality at 200 ppm of CN(C)C(=O)CCC(=O)N(C)c1cn(-c2cccnc2)nc1Cl [Compound F25] is ____.
80 to 100%

----------
Please provide measured mortality at 200 ppm for the entries that follow.
- Tested on: Green Peach Aphid (GPA) (Myzus persicae) (MYZUPE)
- method_notes: Bioassay for Green Peach Aphid (GPA), foliar spray on cabbage seedlings
- Assay type: in vivo
- assay_conditions: 72 h, 200 ppm foliar spray on cabbage seedlings, graded after three days, Abbott corrected % control, read-out: GPA 200 ppm, % Control (or Mortality) rating

Answered cases to consult:
1. CCN(C(=O)CCCN1CCOC1=O)c1cn(-c2cccnc2)nc1Cl ... 80 to 100%
2. CCN(C(=O)CC/C(=N\OCc1ccc(C(F)(F)F)nc1)c1cccs1)c1cn(-c2cccnc2)nc1Cl ... 0 to 80%
3. CCN(C(=O)C1CCN(C(=O)c2cccnc2)CC1)c1cn(-c2cccnc2)nc1Cl ... 80 to 100%
4. CCN(C(=O)CCC(=O)N(C)CC(F)(F)F)c1cn(-c2cccnc2)nc1Cl ... 80 to 100%
5. CCN(C(=O)CN1CCOC1=O)c1cn(-c2cccnc2)nc1Cl ... 80 to 100%

Please supply mortality at 200 ppm for each of the following items, keeping them in order.
1. CCSC(=O)N(C)CCC(=O)N(CC)c1cn(-c2cccnc2)nc1Cl
2. CCN(C(=O)CCC(=O)N(C)CC#N)c1cn(-c2cccnc2)nc1Cl
3. CCN(C(=O)CC/C(=N\OCC1CC1(F)F)c1cccs1)c1cn(-c2cccnc2)nc1Cl (stereo not shown)
4. CCN(C(=O)CCn1ccc(C(C)=O)n1)c1cn(-c2cccnc2)nc1Cl
5. CCSC(=O)N(C)C(C)C(=O)N(CC)c1cn(-c2cccnc2)nc1Cl (stereo not shown)
6. CCN(C(=O)C1CCCN(C(=O)CCC#N)C1)c1cn(-c2cccnc2)nc1Cl (stereo not shown)
7. CCN(C(=O)CNC(=O)CCC(F)(F)F)c1cn(-c2cccnc2)nc1Cl

1: 0 to 80%; 2: 0 to 80%; 3: 0 to 80%; 4: < 0%; 5: 0 to 80%; 6: 80 to 100%; 7: 80 to 100%

I would be grateful if you could provide mortality at 200 ppm for each of the following entries.
1. CCN(C(=O)CC/C(=N/OCCCC(F)(F)F)c1cccs1)c1cn(-c2cccnc2)nc1Cl
2. CCN(C(=O)CC1CN(Cc2ccc(C(F)(F)F)nc2)C1=O)c1cn(-c2cccnc2)nc1Cl (stereo not shown)
3. CCN(C(=O)CCC(=O)NCCF)c1cn(-c2cccnc2)nc1Cl
4. CCN(C(=O)C1CCC(=O)C1)c1cn(-c2cncc(F)c2)nc1C (stereo not shown)
5. CCN(C(=O)CCCC(C)=O)c1cn(-c2cncc(F)c2)nc1C
6. CCN(C(=O)CCC(=O)N1CCCC1)c1cn(-c2cccnc2)nc1Cl

["0 to 80%", "80 to 100%", "0 to 80%", "0 to 80%", "0 to 80%", "0 to 80%"]

Return reported mortality at 200 ppm values for all items listed beneath this line.
1. CCN(C(=O)CC/C(=N\OCCCCC(F)(F)F)c1cccs1)c1cn(-c2cccnc2)nc1Cl
2. CCN(C(=O)CCn1ccc(/C(C)=N/OC)n1)c1cn(-c2cccnc2)nc1Cl
3. CN(C(=O)[C@H]1C=C[C@@H](NC(=O)OC(C)(C)C)C1)c1cn(-c2cccnc2)nc1Cl
4. CCN(C(=O)CCN(C(C)=O)C1CC1)c1cn(-c2cccnc2)nc1Cl

0 to 80%
0 to 80%
0 to 80%
80 to 100%

----------
- System: Green Peach Aphid (GPA) (Myzus persicae) (MYZUPE)
- method_notes: Bioassay for Green Peach Aphid (GPA), foliar spray on cabbage seedlings
- Type: in vivo
- assay_conditions: 72 h, 200 ppm foliar spray on cabbage seedlings, graded after three days, Abbott corrected % control, read-out: GPA 200 ppm, % Control (or Mortality) rating
quantity: mortality at 200 ppm

1. CCN(C(=O)C1CN(C(=O)CCC(F)(F)F)C1)c1cn(-c2cccnc2)nc1Cl ... 80 to 100%
2. CCN(C(=O)CC/C(=N/OCC(F)(F)F)c1cccs1)c1cn(-c2cccnc2)nc1Cl ... 0 to 80%
3. CCN(C(=O)CCl)c1cn(-c2cccnc2)nc1Cl ... 0 to 80%
4. CCN(C(=O)C1CCCN(C(=O)CCC(F)(F)F)C1)c1cn(-c2cccnc2)nc1Cl (stereo not drawn) ... 80 to 100%
5. CCN(C(=O)C1CN(C(C)=O)C1)c1cn(-c2cccnc2)nc1Cl ... 80 to 100%

Attention now shifts to the item below.
# get_value(readout='mortality at 200 ppm', item= CCN(C(=O)CN1CCCCCC1=O)c1cn(-c2cccnc2)nc1Cl )
0 to 80%
